Target: human Tissue Factor (hTF) (human, UniProt P13726 33-295)
Assay: cell-based or functional assay
observationType: IC50, cell viability of A431 cells, Primary ADC, 4 hr, followed by washout (FIG. 20B)

binder	observed
anti-TF antibody 43D7 conjugated to MC-vc-PAB-MMAE (antibody, IgG1, V domains shown, MC-vc-PAB-MMAE on cysteines of the partially reduced antibody (chain and positions not stated), DAR 3-4) VH: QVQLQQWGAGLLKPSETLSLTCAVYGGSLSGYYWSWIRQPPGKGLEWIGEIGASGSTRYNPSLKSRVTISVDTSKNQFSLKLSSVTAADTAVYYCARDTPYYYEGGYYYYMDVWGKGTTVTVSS VL: EIVLTQSPGTLSLSPGERATLSCRASDSVDSSYLAWYQQKPGQAPRLLIYGAFSRANGIPDRFSGSGSGTDFTLTISRLEPEDFAVYYCQQAGVVPYTFGGGTKVEIK	0.28 nM
25A3-vc-MMAE (antibody, IgG1, V domains shown, MC-vc-PAB-MMAE on cysteines of the partially reduced antibody (chain and positions not stated), DAR 3-4, Antibody-drug conjugate (primary ADC) of the IgG1 antibody; also called 25A3 ADC; 25A3 MMAE ADC) VH: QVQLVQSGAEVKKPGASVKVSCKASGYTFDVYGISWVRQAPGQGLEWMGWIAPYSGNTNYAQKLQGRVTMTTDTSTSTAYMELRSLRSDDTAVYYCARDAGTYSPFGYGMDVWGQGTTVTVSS VL: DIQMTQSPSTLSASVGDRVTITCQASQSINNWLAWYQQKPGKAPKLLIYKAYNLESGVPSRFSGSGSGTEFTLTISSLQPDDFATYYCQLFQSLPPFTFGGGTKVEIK	0.19 nM
anti-TF antibody 39A conjugated to MC-vc-PAB-MMAE (antibody, IgG1, V domains shown, MC-vc-PAB-MMAE on cysteines of the partially reduced antibody (chain and positions not stated), DAR 3-4, Antibody-drug conjugate (primary ADC) of the IgG1 antibody; also called 39A ADC) VH: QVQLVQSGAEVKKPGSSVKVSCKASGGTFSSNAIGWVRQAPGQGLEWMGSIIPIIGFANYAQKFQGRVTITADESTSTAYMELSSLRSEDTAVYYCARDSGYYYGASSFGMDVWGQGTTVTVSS VL: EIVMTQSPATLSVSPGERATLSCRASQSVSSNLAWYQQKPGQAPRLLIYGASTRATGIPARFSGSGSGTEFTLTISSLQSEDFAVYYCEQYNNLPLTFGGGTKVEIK	0.12 nM
anti-TF antibody 25G1 conjugated to MC-vc-PAB-MMAE (antibody, IgG1, V domains shown, MC-vc-PAB-MMAE on cysteines of the partially reduced antibody (chain and positions not stated), DAR 3-4, Antibody-drug conjugate (primary ADC) of the IgG1 antibody; also called 25G1 ADC) VH: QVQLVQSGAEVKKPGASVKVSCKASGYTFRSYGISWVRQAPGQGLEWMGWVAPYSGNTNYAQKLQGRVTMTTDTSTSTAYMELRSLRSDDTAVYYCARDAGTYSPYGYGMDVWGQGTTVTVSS VL: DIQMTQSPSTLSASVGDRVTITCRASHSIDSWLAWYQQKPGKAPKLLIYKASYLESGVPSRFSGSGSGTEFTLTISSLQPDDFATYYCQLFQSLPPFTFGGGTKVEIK	0.19 nM
